- Test system: SK-MEL-5
- ASSAY COMMENT: NCI tumour cell line growth inhibition, 48 h
Active and inactive are the calls of the source. No stated cut-off is given here; in the data, active = GI50 up to about 1.1 µM and inactive = higher.
# GI50 per entry

See these solved cases before continuing.
INSERT INTO assay_data (compound, result) VALUES
  ('COc1ccc(OC)c2c(C(=O)O)c(Cc3ccccc3)ccc12', '> 100 µM (inactive)'),
  ('NC(=O)/C(=N\NC(=O)C[n+]1ccccc1)C1NC(=O)NC1=O (centres undefined)', '> 100 µM (inactive)'),
  ('N#CCCN(CCC#N)CCN(CCN(CCC#N)CCC#N)CCN(CCC#N)CCC#N', '> 100 µM (inactive)'),
  ('O=c1c2ccc(Cl)cc2oc2c(CNc3ccc(S(=O)(=O)Nc4nccs4)cc3)cccc12', '> 100 µM (inactive)'),
  ('COc1ccc(/C(Cl)=C(/c2ccc(O)cc2)c2ccc(OCCN(C)C)cc2)cc1', '4.28 µM (inactive)');

Recorded GI50 for `c1ccc2c(c1)CCc1[nH]c3c(c1-2)-c1ccccc1CC3` , please?
> 100 µM (inactive)

Now the compound `O=S(=O)(O)c1cccc2c(/N=N/c3c(O)ccc4ccccc34)cccc12`
46.2 µM (inactive)

Now the compound CCOC(=O)C(NC(=O)c1nc[nH]c1[N+](=O)[O-])C(C)C (centres undefined)
17.3 µM (inactive)

Now the compound O=C(c1ccccc1)[C@H]1Nc2ccc(Cl)cc2C2c3ccccc3CC21 (some centres undefined)
21.3 µM (inactive)

Now the compound `CNc1ccc(N)cc1C(=O)N1CCC[C@H]1CO`
> 100 µM (inactive)

Now the compound `O=C(O)CN1C(=O)CN=C(c2ccccn2)c2cc(Cl)ccc21`
> 100 µM (inactive)

Now the compound O=C(CC1(O)C(=O)Nc2c(Cl)cc(Cl)cc21)c1cccc2ccccc12 (centres undefined)
15.2 µM (inactive)

Now the compound `C/C(CC(=O)NCCc1ccccc1)=N\NC(=O)C[n+]1ccccc1`
> 100 µM (inactive)

Now the compound `O=c1[nH]nc(-c2ccccc2)n1/N=C\CC/C=N\n1c(-c2ccccc2)n[nH]c1=O`
21.6 µM (inactive)

Now the compound CC(=O)NC(Cc1ccsc1)C(=O)O (centres undefined)
> 100 µM (inactive)

Now the compound CCOC(=O)C1Cc2[nH]c3ccccc3c2C(C)C1C (centres undefined)
14 µM (inactive)

Now the compound CC1CCc2c(sc3ncnc(N/N=C/c4ccc(Cl)c(Cl)c4)c23)C1 (centres undefined)
16.7 µM (inactive)

Now the compound `O=c1[nH]nc(Cc2c[nH]c3ccccc23)o1`
> 100 µM (inactive)

---

- Test system: CAKI-1
- ASSAY COMMENT: NCI tumour cell line growth inhibition, 48 h
The source made the active and inactive calls. No stated cut-off is given here; in the data, active = GI50 up to about 1.1 µM and inactive = higher.
# GI50 per entry

INSERT INTO measurements (compound_smiles, result) VALUES
  ('CC1=C(C(=O)CC(=O)C(=O)Nc2ccccc2C(F)(F)F)Sc2ccccc2N1', '53.2 µM (inactive)'),
  ('C=C(C)C[C@H](Sc1nc2ccccc2s1)[C@H](C)O', '70.1 µM (inactive)');

Then this compound:
// lookup GI50 | system=CAKI-1 | key= `COc1ccc(C)cc(O)c1=O`
28.2 µM (inactive)

---

- Test system: 786-0
- ASSAY COMMENT: NCI tumour cell line growth inhibition, 48 h
The source made the active and inactive calls. No stated cut-off is given here; in the data, active = GI50 up to about 1.1 µM and inactive = higher.
# GI50 per entry

INSERT INTO results (compound, result) VALUES
  ('Cc1ccc(S(=O)(=O)n2c(-c3ccccc3)c(-c3ccccc3)c3ccccc32)cc1', '> 100 µM (inactive)'),
  ('C/C=C1\CN2CCC34c5ccccc5N(C)C35OCC4(C(=O)OC)C1CC25 (stereo not given)', '76.2 µM (inactive)');

// lookup GI50 | system=786-0 | key= `C[C@@H]1C[C@@H]2C(=O)N(c3ccccc3)C(=O)[C@@H]2c2[nH]c3ccc(Br)cc3c21`
39.2 µM (inactive)

Now the compound `C=C(C)[C@@H]1CCc2c(c(C)cc(O)c(=O)c2O)C1`
1.41 µM (inactive)

Now the compound O=C(NNCC(O)COc1ccccc1)c1ccccc1 (stereo not given)
> 100 µM (inactive)

Now the compound `Cc1c(Cc2ccccc2)c(Cc2ccccc2)c(C)[s+]1[O-]`
22.9 µM (inactive)

Now the compound `CCCCCCc1ccc(C(=O)NO)cc1`
13.7 µM (inactive)

Now the compound Cc1cn(C2CC(N)C(C(=O)O)O2)c(=O)[nH]c1=O (stereo not given)
> 100 µM (inactive)

Now the compound `O=C(CCCN1CCC2(CC1)CC(=O)N(N1CCOCC1)C2=O)c1ccccc1`
> 100 µM (inactive)

Now the compound `Cc1c(O)nc(/C=C/C(=O)O)nc1C(=O)O`
> 100 µM (inactive)
